biological target: CBL-B (Homo sapiens); construct: endogenous in cells; host or cells: Jurkat HiBit-IL2 reporter cells, C-CBL knocked out by CRISPR; assay: Jurkat HiBit-IL2 assay (c-CBL KO), reporter cell line expressing CBL-B only; type: cell-based; conditions: C-CBL KO (expressing CBL-B only), geometric mean, Table 16b (further repetition), read-out: C-CBL KO EC50 (nM) GMean
Sequence (Q13191 whole entry): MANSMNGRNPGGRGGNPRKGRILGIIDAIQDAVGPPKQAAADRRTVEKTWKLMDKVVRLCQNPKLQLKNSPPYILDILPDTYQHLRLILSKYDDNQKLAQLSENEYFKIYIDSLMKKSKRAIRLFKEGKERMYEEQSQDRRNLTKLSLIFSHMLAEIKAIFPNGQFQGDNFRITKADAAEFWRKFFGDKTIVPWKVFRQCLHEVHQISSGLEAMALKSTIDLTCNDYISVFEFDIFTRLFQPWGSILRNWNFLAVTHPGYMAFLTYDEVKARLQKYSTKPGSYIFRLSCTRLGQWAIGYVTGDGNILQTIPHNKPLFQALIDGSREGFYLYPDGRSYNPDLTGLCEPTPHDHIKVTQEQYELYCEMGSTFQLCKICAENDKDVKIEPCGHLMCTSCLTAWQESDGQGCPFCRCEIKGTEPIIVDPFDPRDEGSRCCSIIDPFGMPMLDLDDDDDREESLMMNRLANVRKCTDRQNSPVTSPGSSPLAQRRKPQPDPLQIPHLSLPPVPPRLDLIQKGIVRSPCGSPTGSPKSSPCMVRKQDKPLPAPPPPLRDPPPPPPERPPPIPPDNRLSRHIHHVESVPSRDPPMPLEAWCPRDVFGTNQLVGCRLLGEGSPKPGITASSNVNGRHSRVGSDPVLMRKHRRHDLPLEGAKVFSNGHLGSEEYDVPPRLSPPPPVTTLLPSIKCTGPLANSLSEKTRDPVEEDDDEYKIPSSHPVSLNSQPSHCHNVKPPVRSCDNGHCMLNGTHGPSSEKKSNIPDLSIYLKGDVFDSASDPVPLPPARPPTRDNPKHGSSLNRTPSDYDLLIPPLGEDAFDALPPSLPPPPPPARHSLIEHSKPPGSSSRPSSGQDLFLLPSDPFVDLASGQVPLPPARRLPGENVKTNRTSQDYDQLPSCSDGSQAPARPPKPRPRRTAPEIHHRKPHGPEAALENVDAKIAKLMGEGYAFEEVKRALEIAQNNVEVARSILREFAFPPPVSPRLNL
Entries and their measured EC50 follow.
readout type: EC50

| compound | observed result |
| --- | --- |
| C[C@H](NC1CCC1)c1nc(C(F)(F)F)cc2c(-c3cccc(C4(Cc5nncn5C)COC4)c3)n[nH]c12 [Example F1] | 15 nM |
| CC(C)NC(C)c1nc(C(F)(F)F)cc2c(-c3cccc([C@H](c4nncn4C)C4CCC4)c3)n[nH]c12 (single isomer, unassigned) [Example C34] | 86 nM |
| C[C@@H](NC1(CO)CCC1)c1nc(C(F)(F)F)cc2c(-c3cccc([C@H](c4nncn4C)C4CCC4)c3)n[nH]c12 (single isomer, unassigned) [Example D73] | 118 nM |

---

Molecular target: CBL-B (Homo sapiens)
Construct: endogenous in cells; host or cells: Jurkat HiBit-IL2 reporter cells, C-CBL knocked out by CRISPR
Assay: Jurkat HiBit-IL2 assay (c-CBL KO), reporter cell line expressing CBL-B only
Format: cell-based
Settings: c-CBL KO (CBL-B only), anti-CD3/anti-CD28 stimulation 4 hours, geometric mean, Table 16a, read-out: C-CBL KO EC50 (nM) GMean
Excerpt: Jurkat HiBit-IL2 Assay (WT, c-CBL KO, CBL-B KO) The purpose of the Jurkat HiBit-IL2 assay is to evaluate the effect of the inhibition of CBL-B and/or C-CBL on TCR/CD28 stimulated interleukin-2 (IL-2) secretion. The expression of IL-2 can then be accurately measured by HiBit luciferase assay. Further, C-CBL or CBL-B was knocked out by CRISPR respectively in this Jurkat HiBit-IL2 reporter cell line to create reporter cell line expressing CBL-B only (c-CBL knockout (KO)) or C-CBL only (CBL-B KO). […]

| molecule | target of assay | unit label | inequality sign | EC50 |
| --- | --- | --- | --- | --- |
| CC(NC1CNC1)c1nc(C(F)(F)F)cc2c(-c3cccc(C4(Cc5nncn5C)COC4)c3)n[nH]c12 (single isomer, unassigned) [Example C28] | CBL-B (Homo sapiens) | nM | > | 2070 |
| C[C@@H](N[C@H]1CCC(F)(F)C1)c1nc(C(F)(F)F)cc2c(-c3cccc(C4(Cc5nncn5C)COC4)c3)n[nH]c12 (single isomer, unassigned) [Example C13] | CBL-B (Homo sapiens) | nM | = | 16 |
| C[C@@H]1CCCN([C@H](C)c2nc(C(F)(F)F)cc3c(-c4cccc(C5(Cc6nncn6C)COC5)c4)n[nH]c23)C1 (single isomer, unassigned) [Example D14] | CBL-B (Homo sapiens) | nM | = | 354 |
| CC(C)[C@H]1CN(C)CCN1Cc1nc(C(F)(F)F)cc2c(-c3cccc([C@H](c4nncn4C)C4CCC4)c3)n[nH]c12 [Example D32] | CBL-B (Homo sapiens) | nM | = | 8 |
| C[C@H](N[C@@H]1COC[C@@H]1O)c1nc(C(F)(F)F)cc2c(-c3cccc([C@H](c4nncn4C)C4CCC4)c3)n[nH]c12 (single isomer, unassigned) [Example D20] | CBL-B (Homo sapiens) | nM | = | 4 |

---

biological target: C-CBL (Homo sapiens); construct: endogenous in cells; host or cells: Jurkat HiBit-IL2 reporter cells, CBL-B knocked out by CRISPR; test: Jurkat HiBit-IL2 assay (CBL-B KO), reporter cell line expressing C-CBL only; type: cell-based; conditions: CBL-B KO (C-CBL only), anti-CD3/anti-CD28 stimulation 4 hours, geometric mean, Table 16a, read-out: CBL-B KO EC50 (nM) GMean
readout type: log10(EC50) (log10 of the value in nM)

| compound | target of assay | log10(EC50) |
| --- | --- | --- |
| C[C@@H](NC1CCCC1)c1nc(C(F)(F)F)cc2c(-c3cccc([C@H](c4nncn4C)C4CCC4)c3)n[nH]c12 (single isomer, unassigned) [Example C11] | C-CBL (Homo sapiens) | 1.66 |
| Cn1cnnc1CC1(c2cccc(-c3n[nH]c4ncc(C(F)(F)F)cc34)c2)COC1 [Example B3] | C-CBL (Homo sapiens) | 3.61 |
| C[C@@H](N[C@@H]1CCC[C@@H]1O)c1nc(C(F)(F)F)cc2c(-c3cccc([C@H](c4nncn4C)C4CCC4)c3)n[nH]c12 (single isomer, unassigned) [Example D16] | C-CBL (Homo sapiens) | 2.27 |
| CC(C)NC(C)c1nc(C(F)(F)F)cc2c(-c3cccc([C@H](c4nncn4C)C4CCC4)c3)n[nH]c12 (single isomer, unassigned) [Example C35] | C-CBL (Homo sapiens) | 2.24 |
| C[C@@H](c1nc(C(F)(F)F)cc2c(-c3cccc(C4(Cc5nncn5C)COC4)c3)n[nH]c12)N1C[C@H](F)[C@@H](F)C1 (single isomer, unassigned) [Example D7] | C-CBL (Homo sapiens) | 2.58 |
| C[C@H](N[C@@H]1CC[C@H](O)C1)c1nc(C(F)(F)F)cc2c(-c3cccc([C@H](c4nncn4C)C4CCC4)c3)n[nH]c12 [Example C49] | C-CBL (Homo sapiens) | 2.13 |
| C[C@H](c1nc(C(F)(F)F)cc2c(-c3cccc(C4(Cc5nncn5C)COC4)c3)n[nH]c12)N1CCC(F)(F)C1 (single isomer, unassigned) [Example D6] | C-CBL (Homo sapiens) | 2.37 |
| CC(O)CNC(C)c1nc(C2CC2)cc2c(-c3cccc(C(c4nncn4C)C4CCC4)c3)n[nH]c12 (single isomer, unassigned) [Example H1] | C-CBL (Homo sapiens) | 2.75 |
| Cn1cnnc1[C@@H](c1cccc(-c2n[nH]c3c(CN[C@H]4CCOC4)nc(C(F)(F)F)cc23)c1)C1CCC1 [Example D1] | C-CBL (Homo sapiens) | 3.28 |
| C[C@H](N[C@H]1CCC(F)(F)C1)c1nc(C(F)(F)F)cc2c(-c3cccc(C4(Cc5nncn5C)COC4)c3)n[nH]c12 (single isomer, unassigned) [Example C12] | C-CBL (Homo sapiens) | 1.40 |
| C[C@H](N[C@@H]1CC[C@@H]1O)c1nc(C(F)(F)F)cc2c(-c3cccc([C@H](c4nncn4C)C4CCC4)c3)n[nH]c12 (single isomer, unassigned) [Example D28] | C-CBL (Homo sapiens) | 0.60 |

---

biological target: C-CBL (Homo sapiens, UniProt P22681); construct: endogenous in cells; host or cells: Jurkat HiBit-IL2 reporter cells, CBL-B knocked out by CRISPR; assay: Jurkat HiBit-IL2 assay (CBL-B KO), reporter cell line expressing C-CBL only; format: cell-based; settings: CBL-B KO (C-CBL only), anti-CD3/anti-CD28 stimulation 4 hours, geometric mean, Table 16a, read-out: CBL-B KO EC50 (nM) GMean
Entries and their measured EC50 follow.
readout type: EC50 (nM)

| molecule | unit label | inequality sign | observed result |
| --- | --- | --- | --- |
| CC(c1nc(C(F)(F)F)cc2c(-c3cccc(C4(Cc5nncn5C)COC4)c3)n[nH]c12)N1CCOCC1 (single isomer, unassigned) [Example C23] | nM | = | 800 |
| CC(NC1CNC1)c1nc(C(F)(F)F)cc2c(-c3cccc(C4(Cc5nncn5C)COC4)c3)n[nH]c12 (single isomer, unassigned) [Example C28] | nM | > | 5190 |
| C[C@H](O)CN[C@H](C)c1nc(C(F)(F)F)cc2c(-c3cccc([C@H](c4nncn4C)C4CCC4)c3)n[nH]c12 (single isomer, unassigned) | nM | = | 96 |
| C[C@@H]1CCCN([C@@H](C)c2nc(C(F)(F)F)cc3c(-c4cccc(C5(Cc6nncn6C)COC5)c4)n[nH]c23)C1 (single isomer, unassigned) | nM | = | 539 |
| C[C@H](NC1CC[C@H]1O)c1nc(C(F)(F)F)cc2c(-c3cccc([C@H](c4nncn4C)C4CCC4)c3)n[nH]c12 (single isomer, unassigned) | nM | = | 43 |
| CC(c1nc(C(F)(F)F)cc2c(-c3cccc(C4(Cc5nncn5C)COC4)c3)n[nH]c12)N1CCC[C@H](C)C1 (single isomer, unassigned) [Example C19] | nM | = | 439 |
| C[C@H](N[C@@H](C)CO)c1nc(C(F)(F)F)cc2c(-c3cccc([C@H](c4nncn4C)C4CCC4)c3)n[nH]c12 (single isomer, unassigned) | nM | = | 194 |
| CC(c1nc(C(F)(F)F)cc2c(-c3cccc(C4(Cc5nncn5C)COC4)c3)n[nH]c12)N1C[C@@H](F)[C@H](F)C1 (single isomer, unassigned) | nM | = | 252 |
| CC(NCC(C)(C)O)c1nc(C(F)(F)F)cc2c(-c3cccc([C@H](c4nncn4C)C4CCC4)c3)n[nH]c12 (single isomer, unassigned) | nM | = | 102 |
| C[C@H](N[C@@H]1CC[C@H]1O)c1nc(C(F)(F)F)cc2c(-c3cccc([C@H](c4nncn4C)C4CCC4)c3)n[nH]c12 (single isomer, unassigned) | nM | = | 63 |
| C[C@H](N[C@H]1CCOC1)c1nc(C(F)(F)F)cc2c(-c3cccc([C@H](c4nncn4C)C4CCC4)c3)n[nH]c12 (single isomer, unassigned) | nM | = | 641 |
| C[C@H](CO)N[C@H](C)c1nc(C(F)(F)F)cc2c(-c3cccc([C@H](c4nncn4C)C4CCC4)c3)n[nH]c12 (single isomer, unassigned) | nM | = | 253 |
| CC(NC(=O)CO)c1nc(C(F)(F)F)cc2c(-c3cccc([C@H](c4nncn4C)C4CCC4)c3)n[nH]c12 (single isomer, unassigned) [Example I2] | nM | = | 2420 |
| CC(NC1CCC1)c1nc(C2CC2)cc2c(-c3cccc(C4(Cc5nncn5C)COC4)c3)n[nH]c12 (single isomer, unassigned) [Example H4] | nM | = | 43 |
| C[C@H](NC1CCCC1)c1nc(C(F)(F)F)cc2c(-c3cccc([C@H](c4nncn4C)C4CCC4)c3)n[nH]c12 (single isomer, unassigned) | nM | > | 2310 |
| C[C@@H](N[C@H]1CCOC1)c1nc(C(F)(F)F)cc2c(-c3cccc([C@H](c4nncn4C)C4CCC4)c3)n[nH]c12 (single isomer, unassigned) | nM | = | 639 |
| CC1CN(Cc2nc(C(F)(F)F)cc3c(-c4cccc(C5(Cc6nncn6C)COC5)c4)n[nH]c23)CCC1(F)F (single isomer, unassigned) [Example C31] | nM | = | 1370 |
| CC(NCCO)c1nc(C(F)(F)F)cc2c(-c3cccc([C@H](c4nncn4C)C4CCC4)c3)n[nH]c12 (single isomer, unassigned) [Example C41] | nM | = | 327 |
| CC(C)[C@H]1CN(C)CCN1Cc1nc(C(F)(F)F)cc2c(-c3cccc([C@H](c4nncn4C)C4CCC4)c3)n[nH]c12 | nM | = | 175 |
| CC(NCCO)c1nc(C(F)(F)F)cc2c(-c3cccc([C@H](c4nncn4C)C4CCCCC4)c3)n[nH]c12 (single isomer, unassigned) [Example C40] | nM | = | 1360 |
| C[C@@H](N[C@@H]1CC[C@H]1O)c1nc(C(F)(F)F)cc2c(-c3cccc([C@H](c4nncn4C)C4CCC4)c3)n[nH]c12 (single isomer, unassigned) | nM | = | 285 |
| C[C@H](N[C@H]1CCC[C@@H]1O)c1nc(C(F)(F)F)cc2c(-c3cccc([C@H](c4nncn4C)C4CCC4)c3)n[nH]c12 (single isomer, unassigned) | nM | = | 105 |
